All values here come from ChEMBL document CHEMBL3784917.

ASSAYED_TARGET: Lysine-specific demethylase 4A (Homo sapiens)
Sequence (O75164 whole entry): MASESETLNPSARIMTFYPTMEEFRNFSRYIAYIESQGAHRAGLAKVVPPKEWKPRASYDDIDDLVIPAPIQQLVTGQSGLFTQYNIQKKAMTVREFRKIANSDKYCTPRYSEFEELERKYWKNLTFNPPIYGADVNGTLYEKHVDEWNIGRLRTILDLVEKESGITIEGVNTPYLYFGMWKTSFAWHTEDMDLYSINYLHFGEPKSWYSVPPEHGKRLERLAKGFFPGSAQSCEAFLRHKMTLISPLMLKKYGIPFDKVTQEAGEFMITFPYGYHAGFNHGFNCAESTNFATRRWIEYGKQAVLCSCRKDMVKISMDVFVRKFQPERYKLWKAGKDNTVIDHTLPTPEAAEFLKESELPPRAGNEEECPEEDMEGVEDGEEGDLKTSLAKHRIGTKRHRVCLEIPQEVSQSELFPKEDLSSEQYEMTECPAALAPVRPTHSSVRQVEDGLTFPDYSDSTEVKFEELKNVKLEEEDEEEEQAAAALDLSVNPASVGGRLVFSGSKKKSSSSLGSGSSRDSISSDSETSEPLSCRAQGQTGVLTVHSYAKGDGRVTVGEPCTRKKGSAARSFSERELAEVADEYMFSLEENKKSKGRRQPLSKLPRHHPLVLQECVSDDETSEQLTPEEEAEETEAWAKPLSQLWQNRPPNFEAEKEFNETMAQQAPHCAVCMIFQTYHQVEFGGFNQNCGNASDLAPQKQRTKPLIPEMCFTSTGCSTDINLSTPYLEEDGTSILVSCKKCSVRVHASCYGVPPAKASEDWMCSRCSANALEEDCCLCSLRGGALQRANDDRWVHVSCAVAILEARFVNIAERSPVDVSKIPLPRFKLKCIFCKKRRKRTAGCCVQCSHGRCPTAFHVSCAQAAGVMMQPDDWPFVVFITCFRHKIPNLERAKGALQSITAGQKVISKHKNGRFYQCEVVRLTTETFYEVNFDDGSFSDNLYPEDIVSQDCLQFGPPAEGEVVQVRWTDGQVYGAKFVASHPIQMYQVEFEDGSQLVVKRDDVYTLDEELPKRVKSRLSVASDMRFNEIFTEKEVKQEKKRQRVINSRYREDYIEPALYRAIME
ASSAY_EXPLANATION: Inhibition of KDM4A in human MCF7 cells assessed as increase in H3K9me3 level after 24 hrs by DAPI staining based immunofuorescence assay
Assay type: cell-based
MEASUREMENT_TYPE: EC50 (µM)
The response must be a number in µM with no trailing unit.

# input Observed EC50 on Lysine-specific demethylase 4A (Homo sapiens) for Cc1ccsc1C(NC(=O)c1ccccc1)c1cc(Cl)c2cccnc2c1O (racemic) , please.
# output 12
